Molecular target: PI3K delta (Homo sapiens)
Construct: for the full-length p110-d subunit are generated and fused by overlapping PCR; His tag (C); Tn5 (Trichoplusia ni) or TiniPro insect cells
Assay: PI3 kinase assay (Kinase-Glo luminescence), PI3K delta
Conditions: Enzymatic Data; read-out: PI3K delta IC50 [umol]
pIC50: −log10 of the molar value.
measurement-type: pIC50

mol-smiles: CN(C)CCN1CCN(C(=O)c2ccc(-c3cnc4ccc(-c5cnc(N)c(C(F)(F)F)c5)nn34)cc2)CC1
pIC50: 7.28
//
mol-smiles: COc1ccc(-c2cnc3ccc(-c4cnc5[nH]ccc5c4)nn23)cc1OC
pIC50: 6.20
//
mol-smiles: COc1nc(-c2cnc3ccc(-c4cnc(N)c(C(F)(F)F)c4)nn23)cnc1N
pIC50: 7.07

I. CC(C)C(=O)NCCCOc1ccc(-c2ccc3ncc(-c4cnc(N)c(C(F)(F)F)c4)n3n2)cc1
II. CC(=O)N1CCN(C(=O)c2ccc(-c3cnc4ccc(-c5cnc(N)c(C(F)(F)F)c5)nn34)cc2)CC1
Q: Field: lower pIC50 | Options: I / II Your choice should be expressed through its label.
A: I
(I: 6.42, II: 8.15)

P. Nc1ncc(-c2ccc3ncc(-c4ccc(C(=O)N5CCN(Cc6ccccn6)CC5)cc4)n3n2)cc1C(F)(F)F
Q. COc1cc(-c2cnc3ccc(-c4cnc(N)c(C(F)(F)F)c4)nn23)c(F)cc1C(=O)NCCN1CCOCC1
Q: Could you determine which record has the numerically smaller pIC50? Candidates: P and Q # respond with the chosen item's label
A: Q
(Q: 6.95, P: 7.82)

* * *

Biological target: PI3K delta (Homo sapiens)
Construct: for the full-length p110-d subunit are generated and fused by overlapping PCR; His tag (C); Tn5 (Trichoplusia ni) or TiniPro insect cells
Assay: PI3 kinase assay (Kinase-Glo luminescence), PI3K delta
Details: Enzymatic Data; read-out: PI3K delta IC50 [umol]
measurement-type: IC50 (nM)

mol-smiles: O=C1CCCN1CCCOc1ccc(-c2ccc3ncc(-c4cnc5[nH]ccc5c4)n3n2)cc1F
IC50 / nM: 530

a. Nc1ncc(-c2ccc3ncc(-c4cncc(C(F)(F)F)c4)n3n2)cc1C(F)(F)F
b. Nc1ncc(-c2ccc3ncc(-c4ccc(C(=O)N5CCN(Cc6ccc(F)cc6)CC5)c(F)c4)n3n2)cc1C(F)(F)F
Q: Which entry has a larger number for IC50, a or b ? Refer to your chosen entry by its label in the reply.
A: b
(b: 829 nM, a: 231 nM)

* * *

Target: PI3K alfa (Homo sapiens, UniProt P42336)
Construct: for the p110-a subunit (with a deletion of the first 20 amino acids); His tag (C); made in house; host or cells: baculovirus; Tn5 (Trichoplusia ni) or TiniPro insect cells
Sequence (P42336 with tags, fused parts or gaps limits assumed): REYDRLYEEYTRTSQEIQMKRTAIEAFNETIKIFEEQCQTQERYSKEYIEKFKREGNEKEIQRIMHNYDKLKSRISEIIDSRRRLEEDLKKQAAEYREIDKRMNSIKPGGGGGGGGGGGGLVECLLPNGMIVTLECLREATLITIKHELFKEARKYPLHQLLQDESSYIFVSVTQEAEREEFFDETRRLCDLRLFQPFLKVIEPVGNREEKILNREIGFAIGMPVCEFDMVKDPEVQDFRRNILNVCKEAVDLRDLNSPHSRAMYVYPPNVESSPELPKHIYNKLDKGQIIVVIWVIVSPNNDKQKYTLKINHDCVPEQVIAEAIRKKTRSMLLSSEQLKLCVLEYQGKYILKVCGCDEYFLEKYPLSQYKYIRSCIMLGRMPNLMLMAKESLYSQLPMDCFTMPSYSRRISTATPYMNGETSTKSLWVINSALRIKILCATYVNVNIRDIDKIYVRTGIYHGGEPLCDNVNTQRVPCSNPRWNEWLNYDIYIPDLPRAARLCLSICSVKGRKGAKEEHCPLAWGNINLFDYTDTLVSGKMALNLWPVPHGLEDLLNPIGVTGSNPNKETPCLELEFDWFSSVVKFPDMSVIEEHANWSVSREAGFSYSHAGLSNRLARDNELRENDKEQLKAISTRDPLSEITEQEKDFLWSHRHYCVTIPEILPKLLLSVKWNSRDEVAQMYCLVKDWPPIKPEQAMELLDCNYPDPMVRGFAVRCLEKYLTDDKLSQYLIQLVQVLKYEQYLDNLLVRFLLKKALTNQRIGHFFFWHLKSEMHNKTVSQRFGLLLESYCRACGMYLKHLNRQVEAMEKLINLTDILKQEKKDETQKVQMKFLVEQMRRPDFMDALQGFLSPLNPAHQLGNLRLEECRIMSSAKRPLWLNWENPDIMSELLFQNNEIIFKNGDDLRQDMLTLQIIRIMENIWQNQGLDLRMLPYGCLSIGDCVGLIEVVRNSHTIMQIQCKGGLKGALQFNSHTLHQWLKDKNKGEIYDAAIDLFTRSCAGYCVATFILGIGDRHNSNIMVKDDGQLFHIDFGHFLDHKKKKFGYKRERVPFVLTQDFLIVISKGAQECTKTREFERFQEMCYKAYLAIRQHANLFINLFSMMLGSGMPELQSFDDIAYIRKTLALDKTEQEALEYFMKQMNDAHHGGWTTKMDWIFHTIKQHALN
Assay: PI3 kinase assay (Kinase-Glo luminescence), PI3K alfa
Assay type: biochemical
Settings: Enzymatic Data; read-out: PI3K alfa IC50 [umol]
pIC50: −log10 of the molar value.
measurement-type: pIC50

P. Nc1ncc(-c2cnc3ccc(-c4ccc(OCCNC(=O)C5CC5)cc4)nn23)cc1C(F)(F)F [Example 157]
Q. COC(=O)NC1(COc2ccc(-c3ccc4ncc(-c5cnc(N)c(C(F)(F)F)c5)n4n3)cc2)COC1 [Example 148]
Q: Which gives the smaller pIC50 number: P or Q ? Reply briefly: the label of your chosen item.
A: Q

P. COc1cc(-c2cnc3ccc(-c4cnc(N)c(C(F)(F)F)c4)nn23)c(F)cc1C(=O)NCCN1CCS(=O)(=O)CC1 [Example 160]
Q. Nc1ncc(-c2cnc3ccc(-c4ccc(OCCCN5CCNC5=O)cc4)nn23)cc1C(F)(F)F [Example 163]
Q: Lower pIC50: P or Q ? Write the label of whichever entry you select.
A: Q

* * *

Quick record of IC50 values for PI3K gamma (Homo sapiens).
measurement-type: IC50 (nM)

a. COc1ccc(-c2ccc3ncc(-c4cnc(N)c(OC)n4)n3n2)cc1OC
b. COc1cc(-c2ccc3ncc(-c4cnc(N)c(C(F)(F)F)c4)n3n2)ccc1OCCCN1CCNC1=O
c. Nc1ncc(-c2ccc3ncc(-c4ccc(C(=O)N5CCN(CC(=O)N6CCOCC6)CC5)cc4)n3n2)cc1C(F)(F)F
d. CC(=O)c1ccc(CNC(=O)c2ccc(-c3cnc4ccc(-c5cnc(N)c(C(F)(F)F)c5)nn34)cc2)cc1
e. COc1cc(-c2ccc3ncc(-c4cnc(N)c(C(F)(F)F)c4)n3n2)ccc1OCCCNC(C)=O
Q: Rank by decreasing IC50 the items listed here. Answer format: list of labels, ordered as asked.
A: c, d, e, a, b
(c: 5900 nM, d: 3240 nM, e: 2220 nM, a: 1300 nM, b: 453 nM)

a. Nc1ncc(-c2cnc3ccc(-c4ccc(C(=O)NCCN5CCOCC5)cc4)nn23)cc1C(F)(F)F
b. NCC1(COc2ccc(-c3ccc4ncc(-c5cnc(N)c(C(F)(F)F)c5)n4n3)cc2)COC1
Q: Could you determine which record has the numerically smaller IC50? Candidates: a and b Record your answer as the label of the chosen record.
A: b

A. COc1cc(-c2ccc3ncc(-c4cnc(N)c(C(F)(F)F)c4)n3n2)ccc1OCCCNC(=O)C1CC1
B. CS(=O)(=O)Nc1ccc(-c2cnc3ccc(-c4cnc(N)c(C(F)(F)F)c4)nn23)cc1
Q: // pick min by IC50: A , B // caller expects the label of the chosen entry
A: A

* * *

Biological target: PI3K alfa (Homo sapiens)
Construct: for the p110-a subunit (with a deletion of the first 20 amino acids); His tag (C); made in house; host or cells: baculovirus; Tn5 (Trichoplusia ni) or TiniPro insect cells
Test: PI3 kinase assay (Kinase-Glo luminescence), PI3K alfa
Assay type: biochemical
Conditions: Enzymatic Data; read-out: PI3K alfa IC50 [umol]
measurement-type: IC50 (nM)

Below, 5 compounds whose answers are already recorded.
compound: CC(=O)NCCCOc1ccc(-c2ccc3ncc(-c4cnc(N)c(C(F)(F)F)c4)n3n2)cc1 [Example 71]
IC50 (nM): 170
//
compound: COc1cc(-c2ccc3ncc(-c4cnc(N)c(C(F)(F)F)c4)n3n2)ccc1OCCCNC(=O)C(C)C [Example 51]
IC50 (nM): 92
//
compound: COc1cc(-c2cnc3ccc(-c4cnc(N)c(C(F)(F)F)c4)nn23)ccc1C(=O)N1CCN(CCc2ccccn2)CC1 [Example 133]
IC50 (nM): 38
//
compound: Nc1ncc(-c2ccc3ncc(-c4ccc(C(=O)NCCN5CCS(=O)(=O)CC5)cc4F)n3n2)cc1C(F)(F)F [Example 153]
IC50 (nM): 8
//
compound: COc1ccc(-c2ccc3ncc(-c4cnc5[nH]ccc5c4)n3n2)cc1 [Example 47]
IC50 (nM): 2720

a. Nc1ncc(-c2ccc3ncc(-c4ccc(C(=O)N5CCN(CC(=O)N6CCOCC6)CC5)cc4)n3n2)cc1C(F)(F)F [Example 144]
b. CC(C)(C)OC(=O)NCCCOc1ccc(-c2cnc3ccc(-c4cnc(N)c(C(F)(F)F)c4)nn23)cc1OC(F)(F)F [Example 40]
c. Nc1ncc(-c2ccc3ncc(-c4ccc(C(=O)NCCn5ccnc5)cc4)n3n2)cc1C(F)(F)F [Example 150]
d. Nc1ncc(-c2ccc3ncc(-c4ccc(C(=O)NCCN5CCOCC5)cc4F)n3n2)cc1C(F)(F)F [Example 151]
e. Nc1ncc(-c2ccc3ncc(-c4ccc5c(cnn5CCCN5CCOCC5)c4)n3n2)cc1C(F)(F)F [Example 140]
Q: # desc sort on IC50 across 5 compounds Rank the items, then write their labels in that order.
A: b, a, e, c, d

* * *

Target: PI3K delta (Homo sapiens, UniProt O00329)
Construct: for the full-length p110-d subunit are generated and fused by overlapping PCR; His tag (C); Tn5 (Trichoplusia ni) or TiniPro insect cells
Sequence (O00329 with tags, fused parts or gaps limits assumed): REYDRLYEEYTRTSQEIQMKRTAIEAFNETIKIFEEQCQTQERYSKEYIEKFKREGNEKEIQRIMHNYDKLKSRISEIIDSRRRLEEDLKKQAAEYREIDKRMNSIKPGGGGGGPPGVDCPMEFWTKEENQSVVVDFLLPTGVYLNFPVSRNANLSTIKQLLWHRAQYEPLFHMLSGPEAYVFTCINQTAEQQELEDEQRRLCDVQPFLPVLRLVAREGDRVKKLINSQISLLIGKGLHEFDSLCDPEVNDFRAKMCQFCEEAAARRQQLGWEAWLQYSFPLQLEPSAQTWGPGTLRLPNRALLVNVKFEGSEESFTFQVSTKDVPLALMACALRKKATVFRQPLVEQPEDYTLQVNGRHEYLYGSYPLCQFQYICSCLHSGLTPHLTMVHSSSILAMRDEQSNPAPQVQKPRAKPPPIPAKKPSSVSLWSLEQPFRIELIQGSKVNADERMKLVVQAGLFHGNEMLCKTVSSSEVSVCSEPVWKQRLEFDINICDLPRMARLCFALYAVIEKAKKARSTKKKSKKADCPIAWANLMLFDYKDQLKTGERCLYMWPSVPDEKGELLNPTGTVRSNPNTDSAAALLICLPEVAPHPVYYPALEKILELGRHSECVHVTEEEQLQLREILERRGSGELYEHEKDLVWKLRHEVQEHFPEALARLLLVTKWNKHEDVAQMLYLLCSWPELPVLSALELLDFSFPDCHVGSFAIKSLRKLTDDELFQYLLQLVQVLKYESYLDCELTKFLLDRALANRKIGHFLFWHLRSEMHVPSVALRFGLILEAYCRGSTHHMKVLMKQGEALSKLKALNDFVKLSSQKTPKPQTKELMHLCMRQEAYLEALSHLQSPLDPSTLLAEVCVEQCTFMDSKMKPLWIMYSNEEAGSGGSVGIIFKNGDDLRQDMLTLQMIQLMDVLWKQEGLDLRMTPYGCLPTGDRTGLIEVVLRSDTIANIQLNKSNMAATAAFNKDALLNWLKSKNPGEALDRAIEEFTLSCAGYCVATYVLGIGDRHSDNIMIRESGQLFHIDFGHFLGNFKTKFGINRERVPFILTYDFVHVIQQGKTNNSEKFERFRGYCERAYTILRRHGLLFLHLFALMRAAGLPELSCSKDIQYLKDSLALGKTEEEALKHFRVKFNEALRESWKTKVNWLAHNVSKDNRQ
Assay: PI3 kinase assay (Kinase-Glo luminescence), PI3K delta
Details: Enzymatic Data; read-out: PI3K delta IC50 [umol]
pIC50: −log10 of the molar value.
measurement-type: pIC50

Solved cases below.
compound: Nc1ncc(-c2cnc3ccc(-c4ccc5c(c4)OCO5)nn23)cc1C(F)(F)F [Example 155]
pIC50: 6.76
//
compound: Nc1ncc(-c2ccc3ncc(-c4ccc(C(=O)O)c(F)c4)n3n2)cc1C(F)(F)F [Example 95]
pIC50: 7.70
//
compound: Nc1ncc(-c2cnc3ccc(-c4ccc(OCCN5CCCC5=O)cc4)nn23)cc1C(F)(F)F [Example 97]
pIC50: 7.25
//
compound: Nc1ncc(-c2ccc3ncc(-c4ccc(C(=O)N5CCN(CCN6CCOCC6)CC5)c(F)c4)n3n2)cc1C(F)(F)F [Example 106]
pIC50: 6.54
//
compound: Nc1ncc(-c2ccc3ncc(-c4ccc(S(=O)(=O)NCCN5CCOCC5)cc4)n3n2)cc1C(F)(F)F [Example 124]
pIC50: 7.54
//
compound: Nc1ncc(-c2cnc3ccc(-c4ccc(OCCCNC(=O)C5CC5)nc4)nn23)cc1C(F)(F)F [Example 177]
pIC50: 7.04
//
compound: Nc1ncc(-c2ccc3ncc(-c4cnc5c(ccn5CCN5CCOCC5)c4)n3n2)cc1C(F)(F)F [Example 126]
pIC50: 7.66
//
compound: CC(=O)NCCOc1ccc(-c2ccc3ncc(-c4cnc(N)c(C(F)(F)F)c4)n3n2)cc1 [Example 75]
pIC50: 6.87

I. Nc1ncc(-c2ccc3ncc(-c4ccc(S(=O)(=O)CCN5CCOCC5)cc4)n3n2)cc1C(F)(F)F [Example 105]
II. Nc1ncc(-c2ccc3ncc(-c4ccc(OCCCNC(=O)C5CC5)cc4)n3n2)cc1C(F)(F)F [Example 142]
Q: When the recorded pIC50 values are compared, which is smaller: that of I or that of II ? In your reply, give the label of the chosen option.
A: II
